Each recorded value in this set is attributed to PubChem BioAssay (NCI).

Run description: NCI Yeast Anticancer Drug Screen. Data for the bub3 strain (AID 167)
Test context: S. cerevisiae bub3 mutant strain, at 50.0 µM, hits give high values
About 79,000 compounds went through this panel and 15% of them were active in at least one assay; those are over-represented in the sample as a whole.
List of growth inhibition values.
Kindly answer with a numeric value in %, unit omitted.

Recorded results for 4 compounds are shown here.
- O=Cc1ccc([N+](=O)[O-])o1: 99.8
- O=C(CC(=O)c1ccccc1NC1=Cc2ccccc2C(=O)C1=O)C(=O)NC1=C(Cl)C(=O)c2ccccc2C1=O: 84.9
- CCOC(=O)C[P+](c1ccc(C)cc1)(c1ccc(C)cc1)c1ccc(C)cc1: 91
- CCCCCN(CCCCC)CCNc1ccc(C)c2sc3ccccc3c(=O)c12: 96.8

Incoming: Consider the compound shown here: N#CC(c1ccc(Cl)cc1)c1ccc([N+](=O)[O-])cc1 (stereo unspecified) What is its recorded growth inhibition?
Outgoing: 64.3

Incoming: Another compound to check: COC1CC(C)(NC(C)=O)C2OC(c3ccccc3)OCC2O1 (stereo unspecified)
Outgoing: 82.7

Incoming: Another compound to check: CCCCCCCCCCCCCCCCCC[n+]1ccc(C(C)CC)cc1 (stereo unspecified)
Outgoing: 99.2
